MIC values, listed per item
# System: Meyerozyma guilliermondii
# Assay Name: Tested for minimum inhibitory concentration against Candida guilliermondii 80 (C.g) at pH of 6.5.
# Type: functional

Worked examples follow.
Structure Notation	MIC
CC[C@@H](C)[C@H]1C(=O)NCC(=O)N(C)[C@@H](C(C)C)C(=O)N[C@@H](Cc2ccc(OC)cc2)C(=O)N[C@H](C)C(=O)N2CCCC[C@H]2C(=O)N(C)[C@@H](C(C)C)C(=O)N[C@@H](C(C)C)C(=O)N(C)[C@@H](CC(=O)O)C(=O)N(C)[C@@H]([C@@H](C)CC)C(=O)N1C	> 100 µg/mL
CCCCCCCCOC(=O)C[C@H]1C(=O)N(C)[C@@H]([C@@H](C)CC)C(=O)N(C)[C@@H]([C@H](C)CC)C(=O)NCC(=O)N(C)[C@@H](C(C)C)C(=O)N[C@@H](Cc2ccc(OC)cc2)C(=O)O[C@H](C)C(=O)N2CCCC[C@H]2C(=O)N(C)[C@@H](C(C)C)C(=O)N[C@@H](C(C)C)C(=O)N1C	> 100 µg/mL
CC[C@@H](C)[C@H]1C(=O)NCC(=O)N(C)[C@@H](C(C)C)C(=O)N[C@@H](Cc2ccc(OC)cc2)C(=O)O[C@H](C)C(=O)N2CCCC[C@H]2C(=O)N(C)[C@@H](C(C)C)C(=O)N[C@@H](C(C)C)C(=O)N(C)[C@@H](CC(=O)N(CC)CC)C(=O)N(C)[C@@H]([C@@H](C)CC)C(=O)N1C	> 100 µg/mL
CC[C@@H](C)[C@H]1C(=O)NCC(=O)N(C)[C@@H](C(C)C)C(=O)N[C@@H](Cc2ccc(OC)cc2)C(=O)O[C@H](C)C(=O)N2CCCC[C@H]2C(=O)N(C)[C@@H](C(C)C)C(=O)N[C@@H](C(C)C)C(=O)N(C)[C@@H](CCCl)C(=O)N(C)[C@@H]([C@@H](C)CC)C(=O)N1C	> 100 µg/mL
CC[C@@H](C)[C@H]1C(=O)NCC(=O)N(C)[C@@H](C(C)C)C(=O)N[C@@H](Cc2ccc(OC)cc2)C(=O)O[C@H](C)C(=O)N2CCCC[C@H]2C(=O)N(C)[C@@H](C(C)C)C(=O)N[C@@H](C(C)C)C(=O)N(C)[C@@H](CC(=O)NCCN(C)C)C(=O)N(C)[C@@H]([C@@H](C)CC)C(=O)N1C	> 100 µg/mL

MIC for CC[C@@H](C)[C@H]1C(=O)NCC(=O)N(C)[C@@H](C(C)C)C(=O)N[C@@H](Cc2ccc(OCC(=O)O)cc2)C(=O)O[C@H](C)C(=O)N2CCCC[C@H]2C(=O)N(C)[C@@H](C(C)C)C(=O)N[C@@H](C(C)C)C(=O)N(C)[C@@H](CC(=O)O)C(=O)N(C)[C@@H]([C@@H](C)CC)C(=O)N1C ?
> 100 µg/mL

MIC for CC[C@@H](C)[C@H]1C(=O)NCC(=O)N(C)[C@@H](C(C)C)C(=O)N[C@@H](Cc2ccc(O)cc2)C(=O)O[C@H](C)C(=O)N2CCCC[C@H]2C(=O)N(C)[C@@H](C(C)C)C(=O)N[C@@H](C(C)C)C(=O)N(C)[C@@H](CC(=O)O)C(=O)N(C)[C@@H]([C@@H](C)CC)C(=O)N1C ?
100 µg/mL
